Where do the numbers come from? From patent EP4549150A1.

Assay: Viscosity by rheology (temperature ramp, cone-plate rheometer)
Format: physicochemical
Conditions: 40°C, shear rate 60 s^-1
readout-type: log10(Viscosity) (log10 of the value in mPa.s)
log10 Viscosity, mPa.s

A selection of reference data follows.
C=C(C)C(=O)OC1CCCCC1OC(=O)C(CC)CCCC (stereo not drawn); 2.00
C=C(C)C(=O)OC1CCCCC1O (stereo not drawn) [Ex1, 2-hydroxycyclohexyl methacrylate]; 1.41
C=C(C)C(=O)OC1CCCCC1OC(=O)C1CCCCC1 (stereo not drawn); 1.23
C=C(C)C(=O)OC1CCCCC1OC(=O)Cc1ccccc1 (stereo not drawn); 1.72
C=C(C)C(=O)OCCO [Ref2, 2-hydroxyethylmethacrylate, reference compound]; 0.60

Okay, next one:
Entry under review: C=C(C)C(=O)OC1CCCCC1OC(=O)C(C)(C)C (stereo not drawn) . Reported log10(Viscosity)?
0.95

---

Assay: Volatility: weight loss after 24 hours in oven
Format: physicochemical
Conditions: 50°C
// reported Volatility [weight loss %] for each item listed
Write down the numeric answer in % and omit the unit.

C=C(C)C(=O)OC1CCCCC1OC(=O)C(CC)CCCC (stereo not drawn); 0.6
C=C(C)C(=O)OC1CCCCC1OC(=O)C1CCCCC1 (stereo not drawn); 1
C=C(C)C(=O)OC1CCCCC1OC(=O)C(C)(C)C (stereo not drawn); 2.7
C=C(C)C(=O)OC1CCCCC1O (stereo not drawn) [Ex1, 2-hydroxycyclohexyl methacrylate]; 5
C=C(C)C(=O)OCCO [Ref2, 2-hydroxyethylmethacrylate, reference compound]; 34

Entry under review: C=C(C)C(=O)OC1CCCCC1OC(=O)Cc1ccccc1 (stereo not drawn) . Reported Volatility [weight loss %]?
0.09

---

Assay: Photo-DSC photo-reactivity study
Assay type: physicochemical
Details: time when maximum heat evolution was reached; 50°C, 365 nm, 1% w/w TPO-L
// reported tmax for each item listed
Write down the numeric answer in s and omit the unit.

C=C(C)C(=O)OC1CCCCC1OC(=O)Cc1ccccc1 (centres unmarked) [Ex4]; 26
C=C(C)C(=O)OC1CCCCC1O (centres unmarked) [Ex1, 2-hydroxycyclohexyl methacrylate]; 14
C=C(C)C(=O)OCCO [Ref2, 2-hydroxyethylmethacrylate, reference compound]; 43
C=C(C)C(=O)OC1CCCCC1OC(=O)C(C)(C)C (centres unmarked) [Ex3]; 51

Entry under review: C=C(C)C(=O)OC1CCCCC1OC(=O)C1CCCCC1 (centres unmarked) [Ex2] . Reported tmax?
17
